Cited source for all entries: the supplement of paper PMC11003180

- Tested on: MDCK p60AmotL2-inducible + doxycycline (p60AmotL2 expressing)
- protocol.text: drug sensitivity score (DSS) from 5-dose viability curve (DSS (area-based score, 0 = no response)); higher = more sensitive (stronger viability inhibition); extreme values may be limits of the assay
- assay.context: doxycycline: 10 ng/mL; 72 h
measurement.label: drug sensitivity score
Number, no unit, nothing else.

Example compounds with recorded drug sensitivity score:
>>> observed_result("CN(C)C(=O)c1cc2cnc(Nc3ccc(N4CCNCC4)cn3)nc2n1C1CCCC1")
1.6
>>> observed_result("CCC1(c2ccc(N)cc2)CCC(=O)NC1=O (stereo not given) [Aminoglutethimide]")
0
>>> observed_result("Nc1ccccc1NC(=O)c1ccc(CNC(=O)OCc2cccnc2)cc1")
4.4
>>> observed_result("CC(C)c1cc(C(=O)N2Cc3ccc(CN4CCN(C)CC4)cc3C2)c(O)cc1O")
18.8

Asked: Field request: drug sensitivity score | item: CC(C)C[C@@H](C(=O)N[C@H](C(=O)OC1CCCC1)c1ccccc1)[C@H](O)C(=O)NO
Given back: 2.5

---

Recorded drug sensitivity score for the following compounds
- System: MDCK p60AmotL2-inducible + doxycycline (p60AmotL2 expressing)
- protocol.text: drug sensitivity score (DSS) from 5-dose viability curve (DSS (area-based score, 0 = no response)); higher = more sensitive (stronger viability inhibition); extreme values may be limits of the assay
- assay.context: doxycycline: 10 ng/mL; 72 h
Write the number on its own, no unit after it.

>>> observed_result("C[C@@H]1CN(C(=O)c2ccc(NC(=O)c3cc(O[C@H](C)c4c(Cl)ccc(F)c4Cl)c(N)nn3)cc2)C[C@H](C)N1 [Ensartinib]")
1.4
>>> observed_result("COCCNCc1ccc(-c2cc3nccc(Oc4ccc(NC(=O)C5(C(=O)Nc6ccc(F)cc6)CC5)cc4F)c3s2)nc1 [Sitravatinib]")
1.7
>>> observed_result("COCC[n+]1c2c(n(Cc3cnccn3)c1C)C(=O)c1ccccc1C2=O [Sepantronium bromide]")
34.3
>>> observed_result("C[C@H]1CNCCCN1S(=O)(=O)c1cccc2cncc(F)c12 [Ripasudil]")
0
>>> observed_result("C=C1C[C@@H]2CC[C@@]34C[C@H]5O[C@H]6[C@@H](O3)[C@H]3O[C@H](CC[C@@H]3O[C@H]6[C@H]5O4)CC(=O)C[C@@H]3[C@@H](OC)[C@@H](C[C@H](O)CN)O[C@H]3C[C@H]3O[C@@H](CC[C@@H]1O2)C[C@@H](C)C3=C [Eribulin]")
23.4

Asked: Report drug sensitivity score for C=CC(=O)Nc1cccc(Nc2nc(Nc3ccc(N4CCN(C(C)=O)CC4)cc3OC)ncc2C(F)(F)F)c1 [Rociletinib] please.
Given back: 10.4

Asked: And what about the compound CCN(CC)CCNC(=O)c1c(C)[nH]c(/C=C2\C(=O)Nc3ccc(-c4csc(-c5ccccc5)n4)cc32)c1C [Amcasertib] ?
Given back: 0

Asked: Moving on to the next compound: CC#CC(=O)N1CC[C@@H](n2c(=O)n(-c3ccc(Oc4ccccc4)cc3)c3c(N)ncnc32)C1 [Tirabrutinib]
Given back: 4

Asked: Then this compound: C[C@@H]1C[C@H]2[C@@H]3CCC4=CC(=O)C=C[C@]4(C)[C@@]3(F)[C@@H](O)C[C@]2(C)[C@@]1(O)C(=O)CO [Dexamethasone]
Given back: 0

Asked: Likewise for CCCCC(=O)OCC(=O)[C@]1(O)Cc2c(O)c3c(c(O)c2[C@@H](O[C@H]2C[C@H](NC(=O)C(F)(F)F)[C@H](O)[C@H](C)O2)C1)C(=O)c1c(OC)cccc1C3=O [Valrubicin] ?
Given back: 12.9

Asked: Also need Cc1cc(Nc2ncc(Cl)c(Nc3ccccc3S(=O)(=O)C(C)C)n2)c(OC(C)C)cc1C1CCNCC1 [Ceritinib] , thanks.
Given back: 0

Asked: Another compound: COc1cc2ncnc(Nc3ccc(F)c(Cl)c3)c2cc1NC(=O)/C=C/CN1CCCCC1 [Dacomitinib]
Given back: 19.3

Asked: Same thing, different compound: Nc1ncnc2c1c(COc1cccc(Cl)c1)nn2C1CCOCC1
Given back: 0.5

Asked: For CCCCCOC(=O)Nc1nc(=O)n([C@@H]2O[C@H](C)[C@@H](O)[C@H]2O)cc1F [Capecitabine] then?
Given back: 7.1

---

Parameter: drug sensitivity score. Scope: all listed entries.
- Tested on: MDCK p60AmotL2-inducible + doxycycline (p60AmotL2 expressing)
- protocol.text: drug sensitivity score (DSS) from 5-dose viability curve (DSS (area-based score, 0 = no response)); higher = more sensitive (stronger viability inhibition); extreme values may be limits of the assay
- assay.context: doxycycline: 10 ng/mL; 72 h
Field format: numeric only.

>>> observed_result("C=C1C[C@@H]2[C@H](CC[C@]3(C)C(=O)CC[C@@H]23)[C@@]2(C)C=CC(=O)C=C12")
0
>>> observed_result("Cc1ccc(NC(=O)c2ccc(CN3CC[C@H](N(C)C)C3)c(C(F)(F)F)c2)cc1Nc1nccc(-c2cncnc2)n1")
0

// next entry
Asked: Entry CCNC(=O)c1noc(-c2cc(C(C)C)c(O)cc2O)c1-c1ccc(CN2CCOCC2)cc1 : reported drug sensitivity score = ?
Given back: 20.7

---

- Tested on: MDCK p60AmotL2-inducible + doxycycline (p60AmotL2 expressing)
- protocol.text: drug sensitivity score (DSS) from 5-dose viability curve (DSS (area-based score, 0 = no response)); higher = more sensitive (stronger viability inhibition); extreme values may be limits of the assay
- assay.context: doxycycline: 10 ng/mL; 72 h
true means recorded drug sensitivity score is 0.3 or above; false means it is below 0.3.

>>> discrete_label("Nc1nc(F)nc2c1ncn2[C@@H]1O[C@H](CO)[C@@H](O)[C@@H]1O")
"false"
>>> discrete_label("O=c1sn(-c2cccc3ccccc23)c(=O)n1Cc1ccccc1")
"false"
>>> discrete_label("CC(O)c1cc(C(=O)N[C@@H](C)Cn2ccc(-c3ccc(C#N)c(Cl)c3)n2)n[nH]1 (stereo partly specified)")
"false"
>>> discrete_label("COc1cc2/c(=N/c3ccc(Br)cc3F)nc[nH]c2cc1OCC1CCN(C)CC1")
"true"
>>> discrete_label("CCN(c1cc(-c2ccc(CN3CCOCC3)cc2)cc(C(=O)NCc2c(C)cc(C)[nH]c2=O)c1C)C1CCOCC1")
"true"

Asked: Is it the case that COc1cc2nccc(Oc3ccc(NC(=O)NC4CC4)c(Cl)c3)c2cc1C(N)=O has drug sensitivity score reaching or exceeding 0.3?
Given back: false

Asked: Request: CCc1nc(C(N)=O)c(Nc2ccc(N3CCC(N4CCN(C)CC4)CC3)c(OC)c2)nc1NC1CCOCC1
Given back: true

Asked: # repeat for CS(=O)(=O)CCNCc1ccc(-c2ccc3ncnc(Nc4ccc(OCc5cccc(F)c5)c(Cl)c4)c3c2)o1
Given back: true

Asked: Also, Nc1nccc(-c2c(-c3ccc(F)cc3)ncn2C2CCCCC2)n1 please.
Given back: true

---

- Tested on: MDCK p60AmotL2-inducible + doxycycline (p60AmotL2 expressing)
- protocol.text: drug sensitivity score (DSS) from 5-dose viability curve (DSS (area-based score, 0 = no response)); higher = more sensitive (stronger viability inhibition); extreme values may be limits of the assay
- assay.context: doxycycline: 10 ng/mL; 72 h
measurement.label: drug sensitivity score
// return just the number, without any unit appended

Some solved entries appear below for comparison.
>>> observed_result("CN1CC[C@H](c2c(O)cc(O)c3c(=O)cc(-c4ccccc4Cl)oc23)[C@H](O)C1")
18.3
>>> observed_result("CC(C)C(=O)Nc1ccc([N+](=O)[O-])c(C(F)(F)F)c1 [Flutamide]")
0
>>> observed_result("COc1cc(N2CCN(C)CC2)ccc1Nc1nccc(-c2cn(C)c3cnccc23)n1")
2.2
>>> observed_result("FC(F)(F)c1ccc(/C=C/c2nc(COc3ccc(CCCCn4ccnn4)cc3)co2)cc1")
0

Asked: Notebook: pull reported drug sensitivity score for MDCK p60AmotL2-inducible + doxycycline (p60AmotL2 expressing), entry S=c1[nH]cnc2nc[nH]c12
Given back: 1.6

Asked: How about this compound: CCn1cc(-c2ccnc3[nH]c(-c4cccc(CN(C)C)c4)cc23)c(-c2ccc(NC(=O)N(C)C)cc2)n1
Given back: 7.1

Asked: // query: COc1ccc(Cn2ccc3ccc(C(=O)NO)cc32)cc1
Given back: 2.1

Asked: Then what about the compound c1cn2cc(-c3ccc4cn[nH]c4c3)nc(Nc3ccc(N4CCOCC4)cc3)c2n1 ?
Given back: 0

Asked: Moving on to Cc1ccc(F)c(NC(=O)Nc2ccc(-c3cccc4[nH]nc(N)c34)cc2)c1
Given back: 0

Asked: Then what about the compound Cc1c2oc3c(C)ccc(C(=O)N[C@@H]4C(=O)N[C@H](C(C)C)C(=O)N5CCC[C@H]5C(=O)N(C)CC(=O)N(C)[C@@H](C(C)C)C(=O)O[C@@H]4C)c3nc-2c(C(=O)N[C@@H]2C(=O)N[C@H](C(C)C)C(=O)N3CCC[C@H]3C(=O)N(C)CC(=O)N(C)[C@@H](C(C)C)C(=O)O[C@@H]2C)c(N)c1=O ?
Given back: 32.9

Asked: And then O=C(Nc1ccc(OC(F)(F)Cl)cc1)c1cnc(N2CC[C@@H](O)C2)c(-c2cc[nH]n2)c1 , what is it?
Given back: 0

Asked: What about CO[C@H]1C(=O)[C@]2(C)[C@@H](OC)C[C@H]3OC[C@@]3(OC(C)=O)[C@H]2[C@H](OC(=O)c2ccccc2)[C@]2(O)C[C@H](OC(=O)[C@H](O)[C@@H](NC(=O)OC(C)(C)C)c3ccccc3)C(C)=C1C2(C)C ?
Given back: 38

Asked: Check CC(C)c1c(C(=O)Nc2ccccc2)c(-c2ccccc2)c(-c2ccc(F)cc2)n1CC[C@@H](O)C[C@@H](O)CC(=O)O too.
Given back: 0.4

Asked: Same again, this time with COc1ccc(-c2ccc3c(N4CCOC[C@@H]4C)nc(N4CCOC[C@@H]4C)nc3n2)cc1CO
Given back: 22.5
